- test system: human recombinant HDAC6 (Homo sapiens)
- Construct: purchased Calbiochem 382180
- Sequence (Q9UBN7 whole entry): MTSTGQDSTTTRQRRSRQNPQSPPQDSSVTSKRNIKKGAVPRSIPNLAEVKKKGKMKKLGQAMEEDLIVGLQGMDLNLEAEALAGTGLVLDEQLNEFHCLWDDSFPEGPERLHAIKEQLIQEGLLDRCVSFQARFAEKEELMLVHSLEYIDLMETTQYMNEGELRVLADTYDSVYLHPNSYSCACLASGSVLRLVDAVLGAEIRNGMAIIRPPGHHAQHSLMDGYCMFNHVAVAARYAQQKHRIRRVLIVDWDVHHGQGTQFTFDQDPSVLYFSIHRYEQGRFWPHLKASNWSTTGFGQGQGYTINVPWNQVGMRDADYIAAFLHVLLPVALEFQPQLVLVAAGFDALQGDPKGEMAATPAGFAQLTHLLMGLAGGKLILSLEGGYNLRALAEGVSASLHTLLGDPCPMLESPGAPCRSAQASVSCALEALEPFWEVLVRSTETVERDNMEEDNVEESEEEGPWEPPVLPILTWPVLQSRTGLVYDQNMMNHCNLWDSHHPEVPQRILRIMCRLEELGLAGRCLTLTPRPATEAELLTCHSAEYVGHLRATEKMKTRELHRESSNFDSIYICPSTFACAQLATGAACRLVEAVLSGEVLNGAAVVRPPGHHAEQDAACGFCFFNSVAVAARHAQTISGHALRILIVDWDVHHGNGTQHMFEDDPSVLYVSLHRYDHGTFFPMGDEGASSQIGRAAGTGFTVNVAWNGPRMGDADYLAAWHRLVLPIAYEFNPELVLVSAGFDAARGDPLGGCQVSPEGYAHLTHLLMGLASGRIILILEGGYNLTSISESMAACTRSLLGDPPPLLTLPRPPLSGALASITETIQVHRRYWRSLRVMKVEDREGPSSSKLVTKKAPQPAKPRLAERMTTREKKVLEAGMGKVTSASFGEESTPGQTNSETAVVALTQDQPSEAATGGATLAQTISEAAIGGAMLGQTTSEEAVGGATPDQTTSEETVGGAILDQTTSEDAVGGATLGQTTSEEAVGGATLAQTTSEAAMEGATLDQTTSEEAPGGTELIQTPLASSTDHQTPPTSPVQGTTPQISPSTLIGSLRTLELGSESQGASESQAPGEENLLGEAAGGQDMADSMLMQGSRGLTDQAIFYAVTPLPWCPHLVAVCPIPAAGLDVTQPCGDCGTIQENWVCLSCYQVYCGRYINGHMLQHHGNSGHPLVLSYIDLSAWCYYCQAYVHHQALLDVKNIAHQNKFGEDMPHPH
- test method notes: HDAC6 enzyme activity inhibition assay (HDAC Fluorimetric Drug Discovery Kit)
- Assay type: biochemical
- experimental parameters: human recombinant HDAC6, same protocol as HDAC1; read-out: HDAC6
observed property: pIC50
Just the number, please; pIC50 means minus log10 of the concentration in mol/L.

Illustrative cases are given below, each with its answer.
> print(dat)
                            compound.string  meas.value
1  O=C(N1CCS(=O)(=O)CC1)N(Cc1ccc(-c2nnc(C(F)F)o2)cn1)c1ccccc1        7.70
2  O=C(N1CCS(=O)(=O)CC1)N(Cc1ccc(-c2nnc(C(F)F)o2)cc1F)c1ccc(CN2CCCCC2)cc1        6.45
3  CCN(CCNC(=O)N(Cc1ccc(-c2nnc(C(F)F)o2)cc1F)c1ccccc1)Cc1ccccc1        6.57
4  O=C(N1CC2(COC2)C1)N(Cc1ccc(-c2nnc(C(F)F)o2)cn1)c1ccccc1        7.72
5  CC(C)(C)OC(=O)N(Cc1ccc(-c2nnc(C(F)F)o2)cc1)c1ccccc1        6.63

Here's the next entry for you.
Indicate its recorded pIC50; the molecule in question is "O=C(N1CCC2(CC1)CNC2)N(Cc1ccc(-c2nnc(C(F)(F)F)o2)cc1)c1ccccc1"
7.15

Ref: patent US10717716B2
